- experimental-target: 5HT7 (h) (Homo sapiens, UniProt P34969)
- Sequence (P34969 whole entry): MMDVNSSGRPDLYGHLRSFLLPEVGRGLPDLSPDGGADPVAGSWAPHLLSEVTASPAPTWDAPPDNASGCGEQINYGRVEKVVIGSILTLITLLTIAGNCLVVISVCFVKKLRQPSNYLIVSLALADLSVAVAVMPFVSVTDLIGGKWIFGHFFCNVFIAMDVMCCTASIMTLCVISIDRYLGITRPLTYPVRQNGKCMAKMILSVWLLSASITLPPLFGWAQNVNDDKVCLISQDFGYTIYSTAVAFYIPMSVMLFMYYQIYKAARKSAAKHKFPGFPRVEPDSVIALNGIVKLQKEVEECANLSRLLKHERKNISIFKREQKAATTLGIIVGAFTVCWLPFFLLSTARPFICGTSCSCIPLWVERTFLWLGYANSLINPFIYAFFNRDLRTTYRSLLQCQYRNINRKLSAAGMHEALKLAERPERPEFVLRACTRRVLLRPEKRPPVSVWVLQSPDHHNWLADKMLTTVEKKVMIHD
reported-property: Ki (µM)
Form entry: value (µM) — number only.

input: Quick one: Ki of Cc1cc2c(s1)Nc1ccccc1N=C2N1CCN(CC(C)(C)C(=O)O)CC1 ?
output: 4.08

----------
# Ki per entry
- experimental-target: histamine H1 receptor (bovine) (Bos taurus, UniProt P30546)
- Construct: the receptors were obtained from bovine cerebellar membrane tissue; from tissue; host or cells: bovine cerebellar membranes
- Sequence (P30546 whole entry): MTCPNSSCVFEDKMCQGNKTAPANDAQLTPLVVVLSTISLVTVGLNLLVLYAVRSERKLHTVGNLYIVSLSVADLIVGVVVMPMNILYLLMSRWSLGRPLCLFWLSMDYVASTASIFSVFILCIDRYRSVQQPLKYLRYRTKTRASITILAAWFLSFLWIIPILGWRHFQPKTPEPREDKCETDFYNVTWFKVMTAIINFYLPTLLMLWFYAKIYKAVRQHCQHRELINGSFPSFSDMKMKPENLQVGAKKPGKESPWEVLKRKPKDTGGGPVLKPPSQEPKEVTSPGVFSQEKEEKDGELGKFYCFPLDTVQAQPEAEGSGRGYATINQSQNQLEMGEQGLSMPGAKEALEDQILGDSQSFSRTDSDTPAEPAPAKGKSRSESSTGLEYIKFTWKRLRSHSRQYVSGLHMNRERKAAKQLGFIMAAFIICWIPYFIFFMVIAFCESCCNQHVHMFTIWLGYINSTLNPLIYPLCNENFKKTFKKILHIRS
- test-name: Histamine H1 binding assay, bovine cerebellar membranes, [3H]pyrilamine
- recorded-conditions: Table 7A; Ki in nM
Form entry: value (nM) — number only.

Solved entries (count: 5):
{"columns": ["query-smiles", "Ki (nM)"],
 "data": [
  ["Cc1cc2c(s1)Nc1ccccc1N=C2N1CCN(CCC(=O)O)CC1", 53.5],
  ["CCc1cc2c(s1)Nc1ccccc1N=C2N1CCN(CC(C)(C)C(=O)O)CC1", 30],
  ["Cc1cc2c(s1)Nc1ccccc1N=C2N1CCN(CC2(C(=O)O)CC2)CC1", 30.1],
  ["CC(C)c1cc2c(s1)Nc1ccccc1N=C2N1CCN(CC(C)(C)C(=O)O)CC1", 45.2],
  ["Cc1cc2c(s1)Nc1ccccc1N=C2N1CCN(CC(C)(C)C(=O)O)CC1", 56]
]}

input: Item: CC(C)(CN1CCN(C2=Nc3ccccc3Nc3sccc32)CC1)C(=O)O Test system: histamine H1 receptor (bovine) (Bos taurus, UniProt P30546) Read-out: Ki Value: ?
output: 2310

input: Item: Cc1cc2c(s1)Nc1ccccc1N=C2N1CCN(CC(C)(C)C(=O)NS(C)(=O)=O)CC1 Test system: histamine H1 receptor (bovine) (Bos taurus, UniProt P30546) Read-out: Ki Value: ?
output: 139
